# Test system: MS2 coat protein
# Measurement notes: apparent KD of MS2 coat protein; designed switch direction (-1 OFF switch, 1 ON switch): -1; higher = weaker reporter binding
# Recorded conditions: input ligand: none
Recorded apparent KD of MS2 coat protein split into classes L (below 20 nM), M (20 nM to below 50 nM), H (50 nM or more)

[[record]]
sequence = "AGCAGACGAGGAUAUAAACGAUAUAACAUGAGGAUCACCCAUGUACGAUCGAAUGAUCGUUUAGAAGGCGUCUGCU [E5/10-A2] (Eterna round: R97, puzzle: Exclusion 5)"
experimental_system = "MS2 coat protein"
qualitative_label = "L"

[[record]]
sequence = "CUGUACUGAGGAUAUACAUGAGGAUCACCCAUGUGUUCCAGCUAGGAAACUAGCAAAUGUAGAAGGCAGUACAG [Mat - Exclusion 3 - Eli Mod - D50] (Eterna round: R97, puzzle: Exclusion 3)"
experimental_system = "MS2 coat protein"
qualitative_label = "H"

[[record]]
sequence = "ACUUACUGAGGAUAUACUUAGAUUUACAUGAGGAUCACCCAUGUUCCUCUAUGUAUAUAUGUAGAAGGCAGAAGUU [Mat - Exclusion 5 - JL Mod - D49] (Eterna round: R97, puzzle: Exclusion 5)"
experimental_system = "MS2 coat protein"
qualitative_label = "M"

[[record]]
sequence = "GGCAGACAUGAGGAUCACCCAUGUCAGGAUAUGGUGCGAUCGUCGAAAGACGAUAGCACCAGAAGGGACAUGCC [Eli x1 4.03] (Eterna round: R97, puzzle: Exclusion 1)"
experimental_system = "MS2 coat protein"
qualitative_label = "L"

[[record]]
sequence = "ACCUCACAUGAGGAUCACCCAUGUCAGGAUAUUCAAACAGGCGAAACUCCGCCUUCUCGAAGAAGGGACAUUAA [Israon] (Eterna round: R96, puzzle: Exclusion 1)"
experimental_system = "MS2 coat protein"
qualitative_label = "L"


Please examine the following record next.
stdin: Assign a category based on measured apparent KD of MS2 coat protein for UGCCAAGCAGGAUAUGCCCGGAAUAACAUGAGGAUCACCCAUGUGACCGAUUGAUGUUCUGCAGAAGGGCAUGGAA [Mat - Exclusion 5 - Eli Mod - D2] (Eterna round: R97, puzzle: Exclusion 5) and give only the class name.
stdout: M
